experiment: log P determination by HPLC on reversed-phase column (C 18), EEC Directive 79/831 Annex V.A8; type: physicochemical; conditions: HPLC, C 18, 40° C., 0.1% aqueous formic acid and acetonitrile gradient
MEASURE: LogP

O=C(c1sccc1I)N(Cc1ccc(C(F)(F)F)cc1)C1CC1 : 4.04
Cn1cc(C(=O)N(Cc2c(Cl)cc(Cl)cc2Cl)C2CC2)c(C(F)(F)F)c1 : 4.08
Cc1cc(C(=O)N(Cc2ccc(Cl)cc2Cl)C2CC2)c(C(F)(F)F)o1 : 4.6
Cc1occc1C(=O)N(Cc1ccc(Cl)cc1Cl)C1CC1 : 3.77
O=C(c1sccc1I)N(Cc1c(Cl)cc(Cl)cc1Cl)C1CC1 : 4.86
